- System: DTP cells derived from PC9
- assaySummary: Drug-tolerant persister cell model, DTP cells
- experimentalConditions: dose 1.0 μM; 48 hours
The entries below are paired with their reported % Viability Persister.
Report the figure in % without appending any unit label.

CC(C)(NC(=O)c1nn(Cc2ccc(Cl)cc2)c2cc(-c3ccc(N4CCOCC4)c(Cl)c3)ccc12)C(C)(C)OC(=O)CCl ... 93.00

Task: Which % Viability Persister is listed for COC(=O)c1ccc([C@@H]2c3[nH]c4ccccc4c3C[C@@H](C(=O)OC)N2C(=O)CCl)cc1 [RSL3, reference compound] ?
Output: 6.00

Task: Which measured % Viability Persister value corresponds to CC(C)(COC(=O)CCl)NC(=O)c1cc2ccc(Br)cc2[nH]1 ?
Output: 122.00

Task: Would you kindly share the measured % Viability Persister for CC(C)(COC(=O)CCl)NC(=O)c1nn(Cc2cc(Cl)cc(Cl)c2)c2cc(-c3ccc(N4CCOCC4)c(Cl)c3)ccc12 ?
Output: 48.00
